For each of the sequences below, state its switch fluorescence ratio.
# Test system: ATP;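 also: ATP exposure 15 min at 22 °C before imaging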
# assay: switch fluorescence ratio, 500 uM ATP over buffer (Cy3 cluster intensity, sum of 5 cycles each) (fold (ratio)); higher = stronger signal-on switching upon ATP binding; sequences stand for … in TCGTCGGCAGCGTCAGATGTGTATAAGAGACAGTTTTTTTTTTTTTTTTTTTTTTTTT…TC
# assay_setup: aptamer strand: ATP DNA aptamer (quencher-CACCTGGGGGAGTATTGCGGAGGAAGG + anchor), 100 nM annealed; ATP concentration: 500 uM
One number for each entry.

Quick batch: switch fluorescence ratio for everything below.
1. TAAAGTAAAT
2. TTAGAGGTCT

Result string:
[0.967, 0.978]

Quick batch: switch fluorescence ratio for everything below.
1. GGAGTGAGGT
2. TGGAGGGCTT
3. GAGGTAGATG
4. AGTTACGGGC
5. GGGGATAGGC
6. CATTAATCAT
7. GAGGCGTATT

Result string:
1. 0.999
2. 1.04
3. 0.991
4. 1.01
5. 1.01
6. 0.995
7. 0.988

Quick batch: switch fluorescence ratio for everything below.
1. TTTTAATGTC
2. TTTTGATGAC
3. TTTACCATTT
4. AATTGAGTAT
5. TGGGTTAGCT
6. GCGGGAGTCC
7. GGGGTTAAAT
8. GGGTGAACAT

Result string:
[0.984, 1.01, 1.02, 1.01, 1.04, 1.13, 1, 0.987]

###

# Tested on: ATP;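 also: ATP exposure 15 min at 22 °C before imaging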
# assay: switch fluorescence ratio, 500 uM ATP over buffer (Cy3 cluster intensity, sum of 5 cycles each) (fold (ratio)); higher = stronger signal-on switching upon ATP binding; sequences stand for … in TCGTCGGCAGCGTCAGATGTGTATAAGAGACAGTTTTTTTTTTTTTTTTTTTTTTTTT…TC
# assay_setup: aptamer strand: ATP DNA aptamer (quencher-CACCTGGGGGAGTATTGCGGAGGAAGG + anchor), 100 nM annealed; ATP concentration: 500 uM
For each of the sequences below, state its switch fluorescence ratio.
One number for each entry.

Examples with answers:
residue_string	reported_result
GCAGGCAACT	0.995
CTATGGGATG	0.992
ATATTATCAG	0.986
TTTGTAATTT	1.01
GTAAAAATGG	1.05

Quick batch: switch fluorescence ratio for everything below.
1. GTGATATCTG
2. TGGTGTAAT
3. GTGGGCGGCG
4. TTTAAAAGGC
5. ATTATGGCAC

Result string:
1: 0.98; 2: 1; 3: 1.02; 4: 1.01; 5: 1.01

Quick batch: switch fluorescence ratio for everything below.
1. ACCTAGGGAG
2. AGTTGAGTTA

Result string:
1. 1.05
2. 1

Quick batch: switch fluorescence ratio for everything below.
1. TGGGAGGGCT
2. TCCCTGGGGG
3. CAGACGGTAC
4. GTAGGGATTA
5. CACAAGGGCC

Result string:
1: 1.05; 2: 1.08; 3: 3.08; 4: 0.978; 5: 1.03

###

# Test system: ATP;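 also: ATP exposure 15 min at 22 °C before imaging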
# assay: switch fluorescence ratio, 500 uM ATP over buffer (Cy3 cluster intensity, sum of 5 cycles each) (fold (ratio)); higher = stronger signal-on switching upon ATP binding; sequences stand for … in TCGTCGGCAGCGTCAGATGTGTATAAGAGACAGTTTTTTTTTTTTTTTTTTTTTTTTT…TC
# assay_setup: aptamer strand: ATP DNA aptamer (quencher-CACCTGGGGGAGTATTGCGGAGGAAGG + anchor), 100 nM annealed; ATP concentration: 500 uM
For each of the sequences below, state its switch fluorescence ratio.
One number for each entry.

Examples with answers:
residue_string	switch fluorescence ratio
TTTCAACGAT	1
AGAAAAGAA	1
TTTTTTT	0.967
CTACCAGGGA	1.15
CGGGCGATAA	1.45

Quick batch: switch fluorescence ratio for everything below.
1. GGGTATGTAT
2. GTTTTTGTGG
3. CGATATAGAC
4. GAGATTAGGT
5. TGGGTTAACA
6. CACCTAGGCT
7. TCAGGATATG

Result string:
0.992
0.992
1.06
0.977
0.991
1.06
0.988

Quick batch: switch fluorescence ratio for everything below.
1. GGGGTTGAGG
2. TGCGTTATAA
3. TGGATATTTG

Result string:
[0.993, 1.02, 0.983]

###

# Tested on: ATP;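 also: ATP exposure 15 min at 22 °C before imaging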
# assay: switch fluorescence ratio, 500 uM ATP over buffer (Cy3 cluster intensity, sum of 5 cycles each) (fold (ratio)); higher = stronger signal-on switching upon ATP binding; sequences stand for … in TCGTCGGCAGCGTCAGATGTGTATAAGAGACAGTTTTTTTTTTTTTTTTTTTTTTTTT…TC
# assay_setup: aptamer strand: ATP DNA aptamer (quencher-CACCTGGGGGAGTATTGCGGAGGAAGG + anchor), 100 nM annealed; ATP concentration: 500 uM
For each of the sequences below, state its switch fluorescence ratio.
Answers are plain numbers.

residue_string	assay_system	reported_result
TTGAATCCAT	ATP	1.01
ACGTGGTCCA	ATP	0.985

Quick batch: switch fluorescence ratio for everything below.
1. CATGGCGAAG
2. TGTGTTTTGG

Result string:
1
0.99

Quick batch: switch fluorescence ratio for everything below.
1. GAATTTGTTG
2. TACGAAGGGG

Result string:
[1, 1.02]

Quick batch: switch fluorescence ratio for everything below.
1. TAAAAGGGTT
2. TGGGTTTGGT
3. CTTAGCTAGT
4. TTGTGTAGCT
5. TAGGGAAGAG
6. GGGGCTACTA

Result string:
1: 1; 2: 1.01; 3: 1.09; 4: 1.02; 5: 0.996; 6: 1.01

Quick batch: switch fluorescence ratio for everything below.
1. GGTCACGTAT
2. GGCGGGGGGC
3. GGCAGAGTTC
4. TAGGGGTGCG
5. CGTTTTGGGA

Result string:
1: 1.05; 2: 0.986; 3: 0.991; 4: 1; 5: 0.98

Quick batch: switch fluorescence ratio for everything below.
1. TTCATATTAT
2. TCGAGGGGAC
3. TTTGGGGGGG
4. TAGGAAATTA
5. CAAAGCACCG

Result string:
[0.947, 1.67, 1, 1, 1.03]

Quick batch: switch fluorescence ratio for everything below.
1. CGTGGGACAG
2. TTAGGCCCTT
3. CGGATTGGGA

Result string:
1. 0.976
2. 1.02
3. 1

Quick batch: switch fluorescence ratio for everything below.
1. AAGACTGTGC
2. GCATATCGGG

Result string:
1: 1.01; 2: 1.02

Quick batch: switch fluorescence ratio for everything below.
1. GGTAAACGCG
2. GTAAAAGGCG
3. GGACGCCTTT
4. GCACCCGTAC

Result string:
0.977
1
0.975
1.52

###

# Tested on: ATP;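 also: ATP exposure 15 min at 22 °C before imaging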
# assay: switch fluorescence ratio, 500 uM ATP over buffer (Cy3 cluster intensity, sum of 5 cycles each) (fold (ratio)); higher = stronger signal-on switching upon ATP binding; sequences stand for … in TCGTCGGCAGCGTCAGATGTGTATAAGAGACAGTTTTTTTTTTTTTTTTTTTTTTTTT…TC
# assay_setup: aptamer strand: ATP DNA aptamer (quencher-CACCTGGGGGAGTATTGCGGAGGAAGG + anchor), 100 nM annealed; ATP concentration: 500 uM
endpoint: switch fluorescence ratio
Numbers only.

Examples with answers:
residue_string	reported_result
ACTTTTTATG	0.991
ATCCTCGTAA	2.44

Quick batch: switch fluorescence ratio for everything below.
1. CGATGGACGG
2. TTTCGATATT
3. ATTAAGAGTA
4. ACTGTATGTC
5. TTAGTGACTA
6. TGGAGCTGCA
7. GTTGTTGGAA

Result string:
1.01
0.989
0.961
1.03
1.01
1.04
0.963

Quick batch: switch fluorescence ratio for everything below.
1. CAATATTTG
2. TTGAGATTAT
3. TGTGTGGTTT
4. ATTATGATAT
5. GCAGTAGTTA
6. ATCGGTGTGC

Result string:
1: 0.994; 2: 0.986; 3: 0.986; 4: 1.01; 5: 1.03; 6: 0.981

Quick batch: switch fluorescence ratio for everything below.
1. TAAATTAGGG
2. CGGGGGGTAG

Result string:
1. 0.992
2. 0.995

Quick batch: switch fluorescence ratio for everything below.
1. GGGGGGGCCC
2. TATTAGGTA
3. CCACTCTGGG
4. AACCGCGCTT
5. GGGGGCGCTG
6. GGTTGTGAGT
7. AATACAGCAT
8. TCTTGTTTGA

Result string:
[1.01, 1.01, 0.998, 1.18, 1.02, 0.993, 1.03, 1.01]

###

# Tested on: ATP;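 also: ATP exposure 15 min at 22 °C before imaging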
# assay: switch fluorescence ratio, 500 uM ATP over buffer (Cy3 cluster intensity, sum of 5 cycles each) (fold (ratio)); higher = stronger signal-on switching upon ATP binding; sequences stand for … in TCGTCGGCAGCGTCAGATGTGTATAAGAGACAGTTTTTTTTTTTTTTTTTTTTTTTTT…TC
# assay_setup: aptamer strand: ATP DNA aptamer (quencher-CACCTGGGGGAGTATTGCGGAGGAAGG + anchor), 100 nM annealed; ATP concentration: 500 uM
endpoint: switch fluorescence ratio
One number for each entry.

Examples with answers:
residue_string	switch fluorescence ratio
TGCTTTTTAA	1.03
CATTCCCTGA	0.981
GGCGTGGGGG	1.05

Quick batch: switch fluorescence ratio for everything below.
1. ATTTTTTGTA
2. TTTTATGTGG
3. AATTTTTACT
4. TTTGGTTTGT
5. CCGAATACCA
6. CGTCCGGTCG

Result string:
0.984
1.01
1.05
1.1
1.61
1.02

Quick batch: switch fluorescence ratio for everything below.
1. AATCGCAACG
2. TAACAGTGTG
3. AAGATATAT
4. GCCCTGAGCG
5. GAGTTAGTCA

Result string:
1: 1.02; 2: 1.04; 3: 0.984; 4: 1.01; 5: 0.975

Quick batch: switch fluorescence ratio for everything below.
1. TTTATTGTTA
2. ATAATATTTT
3. GATGAAAAAA
4. GTGGAGAAAT
5. ATAATATAGG
6. CGATTATCTT

Result string:
[1.05, 1.03, 1.02, 1.04, 0.99, 1.01]

Quick batch: switch fluorescence ratio for everything below.
1. TTCCACGTAT
2. TATCTTTAAC
3. AACTGTGTTT
4. CTTTAGAATC
5. CAGACCGTTT

Result string:
1: 1.18; 2: 1.03; 3: 0.983; 4: 0.941; 5: 1.01

Reference source for all entries: the supplement of paper PMC10126150
